- test.protocol: autophagy modulators in MEF cells, primary screen, imaging, high-content, MEF GFP-LC3 (AID 463193);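 note: spot-positive cell cutoff set from DMSO-treated cells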
- details: MEF GFP-LC3 puncta imaging, at 10 µM; hits give high values
Hit rate of the full screen: of about 190,000 compounds, about 1,900 (1%) were called active. This excerpt belongs to a sample that is enriched for actives.
Binning rule for recorded % cells with GFP-LC3 spots: Low (below 4%), Mid (4% to below 10%), High (10% or more)

Below are worked cases with known answers.
CCn1c(O)c(N=NC(=O)c2cccc(S(=O)(=O)N3CCCCC3)c2)c2ccccc21
High
CN(C)CCNC(=O)Cc1ccc([N+](=O)[O-])cc1
Mid
O=C(Nc1ccc(Br)cn1)c1ccc([N+](=O)[O-])cc1Cl
High
CCN(CC)S(=O)(=O)c1cc([N+](=O)[O-])ccc1NNC(=O)Nc1ccccc1
Low
Nc1nc(NC(=O)/C=C/c2ccccc2)nn1-c1ccccc1
Mid
Cc1cccc(N=C2NC(=O)/C(=C/c3cn(C)c4ccccc34)S2)c1
Low
COc1ccc(-c2nc(N)sc2C2(O)C(=O)Nc3c(Br)cc(F)cc32)cc1OC (stereo not drawn)
Low
CCNC(=S)N(CCc1c(C)[nH]c2ccc(C)cc12)Cc1ccco1
High
CNc1nc2c(C)cccn2c(=O)c1C=Nc1ccc(OC)cc1
High
CC1CCc2sc(C(=O)N/N=C/C3CCCCC3)cc2C1 (stereo not drawn)
High

Data request: Which class holds COCCNc1nc2nonc2nc1N(C)Cc1ccc(C)cc1 ?
Data returned: Low

Data request: Which class holds CC(=O)c1cc(NC(=O)c2ccccc2)c(=O)oc1/C=C/N(C)C ?
Data returned: Low

Data request: Which class holds CC(=O)c1sc(NC(=O)CCCOc2ccccc2C)nc1C ?
Data returned: Mid

Data request: Which class holds N#C/C(=C(/O)Cc1cccc2ccccc12)c1nc2ccccc2s1 ?
Data returned: Low

Data request: Which class holds O=C(N/N=C/c1ccc(Br)o1)c1cncc(Br)c1 ?
Data returned: High

Data request: Which class holds CCn1c(=N)c(C(=O)NCCCOC)cc2c(=O)n3cccc(C)c3nc21 ?
Data returned: Mid

Data request: Which class holds Cc1cccn2c(=O)c(/C=C3\SC(=S)N(CC(C)C)C3=O)c(NCCCOC(C)C)nc12 ?
Data returned: High

Data request: Which class holds O=C1CCCN1CCCNC(=S)Nc1ccc(F)c(Cl)c1 ?
Data returned: Mid

Data request: Which class holds COc1cc(/C=C/C2=CC(C)(C)NC(=S)N2)cc(OC)c1OC ?
Data returned: Low

Data request: Which class holds CN(C)c1ccc(-n2cccc2/C=N/n2cnnc2)cc1 ?
Data returned: Mid

###

- test.protocol: autophagy modulators in MEF cells, primary screen, imaging, high-content, MEF GFP-LC3 (AID 463193);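 note: spot-positive cell cutoff set from DMSO-treated cells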
- details: MEF GFP-LC3 puncta imaging, at 10 µM; hits give high values
The campaign covered roughly 190,000 compounds. About 1,900 (1%) were called active. Only a selection was taken, and actives are over-represented in it overall.
value.type: % cells with GFP-LC3 spots (%)
Kindly answer with a numeric value in %, unit omitted.

Look over these answered cases.
N#Cc1ccsc1NC(=O)CN1CCN(S(=O)(=O)c2cc(Cl)ccc2Cl)CC1
7.41
COC(=O)c1ccc(C(=O)Nc2cc(Cl)ccc2Cl)cc1NC(=O)c1ccccc1C
29.3
COCCNC(=O)Cn1cc2c(n1)CCCCC2
4.61
Cc1c(CN2CCC(CO)(CCOc3ccccc3)CC2)[nH]c2ccc(Cl)cc12
14.1
CC(Oc1cccc(NC(=O)c2cccs2)c1)C(=O)c1ccccc1 (centres undefined)
9.23
CN(C)S(=O)(=O)N1CCN(c2ccc([N+](=O)[O-])cc2)CC1
20
COc1ccccc1CNC(=O)Cn1cc2c(n1)CCCC2
15.2
CCOc1ccc(N(CC(=O)NCCc2ccc(OC)cc2)S(C)(=O)=O)cc1
1.57
O=Cc1cn(Cc2ccccc2)nc1-c1cccnc1
0.945
CCOC12CC(C)(C)CC(C)(CC3=C1C(=O)CC(C)(C)C3)C2 (centres undefined)
4.26

Data request: Identify the reported % cells with GFP-LC3 spots for the following entry. COc1ccc(CCNC(=O)CCn2c(=O)oc3ccccc32)cc1OC
Data returned: 4.11

Data request: Identify the reported % cells with GFP-LC3 spots for the following entry. Clc1ccc(CN2CCN(/N=C/c3cccnc3)CC2)cc1
Data returned: 0.128

Data request: Identify the reported % cells with GFP-LC3 spots for the following entry. COc1ccc(OC)c(NC(=O)Cn2c(=O)oc3ccccc32)c1
Data returned: 18.4

Data request: Identify the reported % cells with GFP-LC3 spots for the following entry. Cc1cnc(C(=O)OCC(=O)NCCCc2ccccc2)cn1
Data returned: 19.9

Data request: Identify the reported % cells with GFP-LC3 spots for the following entry. Nc1[nH]c(=S)nc2nc(-c3ccccc3)c(-c3ccccc3)nc12
Data returned: 14.2
